The measurements presented in this section are drawn from paper PMC6028563.

Recorded Ki values (rat A1 AR (Rattus norvegicus, UniProt P25099)) are given below.

Field: example entries. Status: answers known.
Recorded Ki for CCn1c(=O)c2c(nc3n2CCN(Cc2ccc(C(F)(F)F)cc2)C3)n(C)c1=O [Compound 14f] on rat A1 AR (Rattus norvegicus, UniProt P25099) was > 1500 nM

Recorded Ki for CCn1c(=O)c2c(nc3n2CCN(Cc2ccc(F)c(C(F)(F)F)c2)C3)n(CC)c1=O [Compound 15i] on rat A1 AR (Rattus norvegicus, UniProt P25099) was > 1500 nM

Kindly review the next compound as well.
Recorded Ki for Cn1c(=O)[nH]c(=O)c2c1nc1n2CCN(CCc2cccc(Br)c2)C1 [Compound 13d] on rat A1 AR (Rattus norvegicus, UniProt P25099) was > 1500 nM
